Data provenance is the supplement of paper PMC6555819.

System: PPARg:RXRa 30nM:10nM, anti-RXR (NR concentration 30 nM, RXRa partner concentration 10 nM)
TEST DESCRIPTION: PBM binding z-score (relative to random genomic background probes); higher = stronger binding; sequences stand for … in GC…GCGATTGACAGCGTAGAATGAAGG
ENDPOINT NAME: PBM binding z-score

{"RESIDUE CODES": "TCTATTAGTTGATTAGGGCAAGCGAAACAGCGGA", "ENDPOINT NAME": "PBM binding z-score", "OBSERVED": 3.67}
{"RESIDUE CODES": "AGAATGAGGTTTCCAAAGATCAGGGAAACGCTTG", "ENDPOINT NAME": "PBM binding z-score", "OBSERVED": -0.17}
{"RESIDUE CODES": "TCTTGTAGATCAAAGGTTAAGAAGGCCGAAGCCT", "ENDPOINT NAME": "PBM binding z-score", "OBSERVED": 9.13}
{"RESIDUE CODES": "GCTTGTAGGTCAAGGTTAAGAAAGACTAAGCTAA", "ENDPOINT NAME": "PBM binding z-score", "OBSERVED": 6.21}
{"RESIDUE CODES": "ACGATTAGTTGACTTAGGGCAACCGATACGACGC", "ENDPOINT NAME": "PBM binding z-score", "OBSERVED": 0.0988}
{"RESIDUE CODES": "TTACCAAGGTGAACGTCGTTGATCCCTCTGTAGA", "ENDPOINT NAME": "PBM binding z-score", "OBSERVED": 0.514}

====

System: PPARg:RXRa 30nM:10nM, anti-RXR (NR concentration 30 nM, RXRa partner concentration 10 nM)
TEST DESCRIPTION: PBM binding z-score (relative to random genomic background probes); higher = stronger binding; sequences stand for … in GC…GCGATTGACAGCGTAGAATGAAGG
Examples of sequences with documented PBM binding z-score follow.

{"RESIDUE CODES": "CGTCCAAGGTCAAAGTTCAGTGAAGAGATGACGG", "SYSTEM TESTED": "PPARg:RXRa 30nM:10nM, anti-RXR (NR concentration 30 nM, RXRa partner concentration 10 nM)", "PBM binding z-score": 6.19}
{"RESIDUE CODES": "CTACCAAGGTGAACAAGCTCGTTGATTACTATTC", "SYSTEM TESTED": "PPARg:RXRa 30nM:10nM, anti-RXR (NR concentration 30 nM, RXRa partner concentration 10 nM)", "PBM binding z-score": -0.0799}
{"RESIDUE CODES": "TCACATAGGTAAAAGGTGAAAGTCGGTGTGGTAA", "SYSTEM TESTED": "PPARg:RXRa 30nM:10nM, anti-RXR (NR concentration 30 nM, RXRa partner concentration 10 nM)", "PBM binding z-score": 5.78}
{"RESIDUE CODES": "AATACAGGGTCATCGTATGCCAGAGTACGCACAG", "SYSTEM TESTED": "PPARg:RXRa 30nM:10nM, anti-RXR (NR concentration 30 nM, RXRa partner concentration 10 nM)", "PBM binding z-score": 2.88}
{"RESIDUE CODES": "ATCTCTAGGTAAAAGTTTAGTGAATCCCGAGGAT", "SYSTEM TESTED": "PPARg:RXRa 30nM:10nM, anti-RXR (NR concentration 30 nM, RXRa partner concentration 10 nM)", "PBM binding z-score": 2.89}
{"RESIDUE CODES": "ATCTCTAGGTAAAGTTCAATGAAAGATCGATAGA", "SYSTEM TESTED": "PPARg:RXRa 30nM:10nM, anti-RXR (NR concentration 30 nM, RXRa partner concentration 10 nM)", "PBM binding z-score": 3.34}

====

System: THRa homodimer (NR concentration 90 nM)
TEST DESCRIPTION: PBM binding z-score (relative to random genomic background probes); higher = stronger binding; sequences stand for … in GC…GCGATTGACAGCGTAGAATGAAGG
ENDPOINT NAME: PBM binding z-score

{"RESIDUE CODES": "AGAATGAGGTTACCAAAGATCAGGGCAACGCTTG", "OBSERVED": 1.2}
{"RESIDUE CODES": "AGTCAAAGTTCACTAGGTCACGTAAGATTCAGCT", "OBSERVED": 2.54}
{"RESIDUE CODES": "TCTTGTAGATCAAGCAGGTTTAGAAAGCCTGAGT", "OBSERVED": -0.583}
{"RESIDUE CODES": "ACTATTCGTTGACTTAGGGCAACCGATACGACGC", "OBSERVED": 0.963}
{"RESIDUE CODES": "ACTATTAGTTGAGACGAGGGCAACCGCTAGGTTG", "OBSERVED": 0.222}
{"RESIDUE CODES": "ATCTCTAGGGAAGACTCAGTTCAGTGAAGAACGC", "OBSERVED": 0.318}
{"RESIDUE CODES": "ATCGACAGGTCGAAGGTGAGTATACCCACCCGAA", "OBSERVED": -0.432}
{"RESIDUE CODES": "ATACCAAGGTGATCGTGAGGTCGTTGAGACTAAC", "OBSERVED": 2.38}
{"RESIDUE CODES": "CAAACTAGGTCAAGAGGTTAAAGTCCGCTTCCCG", "OBSERVED": 1.36}
{"RESIDUE CODES": "CCGACTGGGGCAGAAAGGTTAGCATACCATCCGG", "OBSERVED": -0.682}
{"RESIDUE CODES": "TGTCAAAGTTCAAAGGTAACGTACGTATCCACAC", "OBSERVED": 0.0494}
{"RESIDUE CODES": "ACTAGTTGGTCATCTGAGGTCACACACAATTCGG", "OBSERVED": 5.44}
{"RESIDUE CODES": "TCTAGTTGGTCAAAGGTCACACGCTCGAAATGCG", "OBSERVED": 2.09}
{"RESIDUE CODES": "GCTACTGGGGCAAAGCAGGTTACCATAAGGTTGG", "OBSERVED": 0.258}
{"RESIDUE CODES": "ATCTCTGGGTAAGACTCAGTTCAGTGAAGAACGC", "OBSERVED": 0.517}
{"RESIDUE CODES": "CGTCCAAGATCATAGGAGGTCAGTGAAGACAGAT", "OBSERVED": 0.538}
{"RESIDUE CODES": "TAATATAGGTAAAAGGTGAAAGTCGGTGTGGTAA", "OBSERVED": 0.816}
{"RESIDUE CODES": "TCAATTAGTTGATTAGGGCAACCGAAACAGCGGA", "OBSERVED": 0.0743}
{"RESIDUE CODES": "AGAACGAGGGCACGCTAAGTTGATAGCAGAGTAG", "OBSERVED": 0.0343}
{"RESIDUE CODES": "TGAATGAGATTATAAGATCAGGGAACGTTGCAAA", "OBSERVED": -1.28}
{"RESIDUE CODES": "AGCGAAAGGTCGTGAGGTGAGTATACAGAAAGGC", "OBSERVED": 1.27}
{"RESIDUE CODES": "GTACCAAGGTGAATAGGTTGTTGATGAGTAGGCG", "OBSERVED": 0.782}
{"RESIDUE CODES": "TCTCGGAGGACACGAAGGTCAGACCTTTCCAGAG", "OBSERVED": 1.21}
{"RESIDUE CODES": "TATACAGGGTCAAAGGCCAGAGTGCGAATGTCGA", "OBSERVED": 0.842}
{"RESIDUE CODES": "CCGACTGGGGCAAGGTTAACATAACGCACAGCCA", "OBSERVED": -0.033}
{"RESIDUE CODES": "CCCAGCAGGCCAGGGTCACTCAAGCATTTCGCTT", "OBSERVED": 1.3}

====

System: PPARg DBDmut:RXRa IVT, anti-PPARg (DBD mutation: PPARg1 K132A/R137A, NR concentration 270 nM, RXRa partner concentration 90 nM)
TEST DESCRIPTION: PBM binding z-score (relative to random genomic background probes); higher = stronger binding; sequences stand for … in GC…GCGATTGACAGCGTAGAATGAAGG
ENDPOINT NAME: PBM binding z-score

{"RESIDUE CODES": "ATCTCTAGGTAAAATTTCAGTGAATCCCGAGGAT", "ENDPOINT NAME": "PBM binding z-score", "OBSERVED": 0.773}
{"RESIDUE CODES": "GATACAGGGTCAAGGGCAGAGTACGCGTATTGAT", "ENDPOINT NAME": "PBM binding z-score", "OBSERVED": 0.998}
{"RESIDUE CODES": "CGTCAAAGTTCAACTAAGGTAATGTAAAGCACGC", "ENDPOINT NAME": "PBM binding z-score", "OBSERVED": 0.986}
{"RESIDUE CODES": "TATACAGGGTCACAGGCCAGAGTACGAATGTCGA", "ENDPOINT NAME": "PBM binding z-score", "OBSERVED": 2.95}
{"RESIDUE CODES": "TCATTTAGGTAATACAGGTGAAAGTCGGCATCTA", "ENDPOINT NAME": "PBM binding z-score", "OBSERVED": 1.53}
{"RESIDUE CODES": "GCTTACGGGTTAAAGGTTATAGCATGAATAGAAT", "ENDPOINT NAME": "PBM binding z-score", "OBSERVED": 0.8}
